Reference source for all entries: the supplement of paper PMC11061612

Test system: RD (Rhabdomyosarcoma)
measurement_protocol: Bliss excess, mean over the matrix (fraction); higher = more synergy;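 also: after 72 h of two-drug dosing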
Catalogue of compounds with associated Bliss excess
metric: Bliss excess

* CN(CCO)CC[C@H](CSc1ccccc1)Nc1ccc(S(=O)(=O)NC(=O)c2ccc(N3CCC([C@@H](O)c4ccccc4-c4ccc(Cl)cc4)CC3)cc2)cc1S(=O)(=O)C(F)(F)F [AZD4320] + CN(C)CCCOc1ccc(-c2ccc3ncc4c(c3c2)n(C2CCOCC2)c(=O)n4C)cn1 [AZD0156] (first compound max 1 µM, 7x7, partner max 1 µM) | -0.0172
* Cc1cc2ncnn2cc1Nc1ncc2c(n1)n(C1CCOCC1)c(=O)n2C [AZD7648] + C=CCn1c(=O)c2cnc(Nc3ccc(N4CCN(C)CC4)cc3)nc2n1-c1cccc(C(C)(C)O)n1 [AZD1775] (first compound max 10 µM, partner max 1 µM) | -0.0168
* CC1(C)CCC(CN2CCN(c3ccc(C(=O)NS(=O)(=O)c4ccc(NCC5CCOCC5)c([N+](=O)[O-])c4)c(Oc4cnc5[nH]ccc5c4)c3)CC2)=C(c2ccc(Cl)cc2)C1 [Venetoclax] + C=CCn1c(=O)c2cnc(Nc3ccc(N4CCN(C)CC4)cc3)nc2n1-c1cccc(C(C)(C)O)n1 [AZD1775] (first compound max 1 µM, partner max 1 µM) | -0.0163
